The measured values listed here are drawn from ChEMBL document CHEMBL3745645.

experiment: Cytotoxicity against human SNB19 cells at 10 uM after 48 hrs by SRB assay; assay type: functional; settings: SNB-19, 48 h, read-out: GI
Label Fulfilled when inhibition of growth at 10 µM >= 10%; otherwise Not fulfilled.

Use these answered entries as a reference point.
Cc1nc2cc(Nc3nc(Nc4ccc(F)cc4)nc(Nc4ncccn4)n3)ccc2n1Cc1ccccc1: Not fulfilled
Cc1nc2cc(Nc3nc(Nc4ccc(F)cc4)nc(Nc4ccc(F)cc4)n3)ccc2n1Cc1ccccc1: Not fulfilled
Cc1nc2cc(Nc3nc(NCCN)nc(Nc4ccc(F)cc4)n3)ccc2n1Cc1ccccc1: Not fulfilled

Task item: Is inhibition of growth at 10 µM at least 10%? Consider "Cc1nc2cc(Nc3nc(Nc4ccc(F)cc4)nc(-c4ccccc4)n3)ccc2n1Cc1ccccc1"
Reply: Fulfilled

Task item: Another compound to look at: "Cc1nc2cc(Nc3nc(Nc4ccc(F)cc4)nc(-c4ccc(Cl)cc4)n3)ccc2n1Cc1ccccc1"
Reply: Fulfilled

Task item: Another compound to look at: "Cc1nc2cc(Nc3nc(Nc4ccc(F)cc4)nc(-c4cccs4)n3)ccc2n1Cc1ccccc1"
Reply: Fulfilled

Task item: Another compound to look at: "Cc1nc2ccc(Nc3nc(Nc4ccc(F)cc4)nc(N4CCCCC4)n3)cc2n1Cc1ccccc1"
Reply: Fulfilled

Task item: Another compound to look at: "Cc1nc2ccc(Nc3nc(NCCO)nc(Nc4ccc(F)cc4)n3)cc2n1Cc1ccccc1"
Reply: Not fulfilled

Task item: Another compound to look at: "COc1ccc(-c2nc(Nc3ccc(F)cc3)nc(Nc3ccc4c(c3)nc(C)n4Cc3ccccc3)n2)cc1"
Reply: Fulfilled

Task item: Another compound to look at: "Cc1nc2cc(Nc3nc(Nc4ccc(F)cc4)nc(N4CCN(C)CC4)n3)ccc2n1Cc1ccccc1"
Reply: Fulfilled

Task item: Another compound to look at: "Cc1nc2cc(Nc3nc(Cl)nc(Nc4ccc(F)cc4)n3)ccc2n1Cc1ccccc1"
Reply: Not fulfilled

Task item: Another compound to look at: "Cc1nc2ccc(Nc3nc(Cl)nc(Nc4ccc(F)cc4)n3)cc2n1Cc1ccccc1"
Reply: Fulfilled

Task item: Another compound to look at: "Cc1nc2ccc(Nc3nc(NCCN4CCOCC4)nc(Nc4ccc(F)cc4)n3)cc2n1Cc1ccccc1"
Reply: Fulfilled

Task item: Another compound to look at: "Cc1nc2cc(Nc3nc(Nc4ccc(F)cc4)nc(N4CCCC4)n3)ccc2n1Cc1ccccc1"
Reply: Fulfilled

====

experiment: Cytotoxicity against human SF268 cells after 48 hrs by SRB assay; assay type: functional; conditions: SF-268, 48 h, pooled result: one value given for 6 cell lines, strains, targets or settings
Lab note: anything with LC50 (concentration killing 50% of cells) below 20 µM is marked true; values at 20 µM or higher are marked false.

Use these answered entries as a reference point.
Cc1nc2cc(Nc3nc(Nc4ccc(F)cc4)nc(-c4cccs4)n3)ccc2n1Cc1ccccc1: false
Cc1nc2cc(Nc3nc(Nc4ccc(F)cc4)nc(N4CCCC4)n3)ccc2n1Cc1ccccc1: true
Cc1nc2cc(Nc3nc(Nc4ccc(F)cc4)nc(N4CCN(C)CC4)n3)ccc2n1Cc1ccccc1: true
Cc1nc2cc(Nc3nc(Nc4ccc(F)cc4)nc(-c4ccc(Cl)cc4)n3)ccc2n1Cc1ccccc1: false
COc1ccc(-c2nc(Nc3ccc(F)cc3)nc(Nc3ccc4c(c3)nc(C)n4Cc3ccccc3)n2)cc1: false

Task item: Is LC50 (concentration killing 50% of cells) strictly under 20 µM for the entry "Cc1nc2ccc(Nc3nc(NCCN4CCOCC4)nc(Nc4ccc(F)cc4)n3)cc2n1Cc1ccccc1" ?
Reply: true

Task item: Another compound to look at: "Cc1nc2ccc(Nc3nc(Cl)nc(Nc4ccc(F)cc4)n3)cc2n1Cc1ccccc1"
Reply: false

====

system: SK-OV-3; test: Cytotoxicity against human SKOV3 cells at 10 uM after 48 hrs by SRB assay; assay type: functional
The source made the active and inactive calls. The rule behind the calls is not given here.
Pick from t = active, f = inactive when you respond.

Use these answered entries as a reference point.
Cc1nc2cc(Nc3nc(NCCO)nc(Nc4ccc(F)cc4)n3)ccc2n1Cc1ccccc1: f
Cc1nc2cc(Nc3nc(Nc4ccc(O)cc4)nc(Nc4ccc(F)cc4)n3)ccc2n1Cc1ccccc1: f
Cc1nc2cc(Nc3nc(Nc4ccc(F)cc4)nc(N4CCCC4)n3)ccc2n1Cc1ccccc1: t

Task item: Entry "Cc1nc2ccc(Nc3nc(NCCO)nc(Nc4ccc(F)cc4)n3)cc2n1Cc1ccccc1" : call = ?
Reply: f

Task item: Another compound to look at: "Cc1nc2cc(Nc3nc(Nc4ccc(F)cc4)nc(Nc4ccc(F)cc4)n3)ccc2n1Cc1ccccc1"
Reply: f

====

tested on: SR; assay: Cytotoxicity against human SR cells at 10 uM after 48 hrs by SRB assay; assay type: functional; conditions: read-out: GI
# inhibition of growth at 10 µM listing for each entry below

Cc1nc2cc(Nc3nc(NCCO)nc(Nc4ccc(F)cc4)n3)ccc2n1Cc1ccccc1: 85.1%
Cc1nc2ccc(Nc3nc(Nc4ccc(F)cc4)nc(N4CCCCC4)n3)cc2n1Cc1ccccc1: 50.7%
Cc1nc2cc(Nc3nc(Nc4ccc(F)cc4)nc(-c4ccccc4)n3)ccc2n1Cc1ccccc1: 68.2%

Task item: Could you share which inhibition of growth at 10 µM value was measured for "Cc1nc2cc(Nc3nc(Nc4ccc(F)cc4)nc(-c4cccs4)n3)ccc2n1Cc1ccccc1" ?
Reply: 82%

Task item: Another compound to look at: "Cc1nc2cc(Nc3nc(Nc4ccc(F)cc4)nc(Nc4ccc(F)cc4)n3)ccc2n1Cc1ccccc1"
Reply: 18.6%

Task item: Another compound to look at: "Cc1nc2cc(Nc3nc(Nc4ccc(F)cc4)nc(Nc4ncccn4)n3)ccc2n1Cc1ccccc1"
Reply: 51.6%

Task item: Another compound to look at: "Cc1nc2ccc(Nc3nc(NCCN4CCOCC4)nc(Nc4ccc(F)cc4)n3)cc2n1Cc1ccccc1"
Reply: 99.8%

Task item: Another compound to look at: "Cc1nc2ccc(Nc3nc(Cl)nc(Nc4ccc(F)cc4)n3)cc2n1Cc1ccccc1"
Reply: 63.9%

Task item: Another compound to look at: "Cc1nc2ccc(Nc3nc(NCCO)nc(Nc4ccc(F)cc4)n3)cc2n1Cc1ccccc1"
Reply: 28.3%

Task item: Another compound to look at: "Cc1nc2cc(Nc3nc(Cl)nc(Nc4ccc(F)cc4)n3)ccc2n1Cc1ccccc1"
Reply: 42.5%

Task item: Another compound to look at: "Cc1nc2cc(Nc3nc(Nc4ccc(O)cc4)nc(Nc4ccc(F)cc4)n3)ccc2n1Cc1ccccc1"
Reply: 20.8%

Task item: Another compound to look at: "Cc1nc2ccc(Nc3nc(NCCN)nc(Nc4ccc(F)cc4)n3)cc2n1Cc1ccccc1"
Reply: 88.9%

====

test system: M14; assay: Cytotoxicity against human M14 cells at 10 uM after 48 hrs by SRB assay; type: functional; details: M14, 48 h, read-out: GI
Label Yes when inhibition of growth at 10 µM >= 20%; otherwise No.

Use these answered entries as a reference point.
Cc1nc2ccc(Nc3nc(NCCN)nc(Nc4ccc(F)cc4)n3)cc2n1Cc1ccccc1: No
Cc1nc2cc(Nc3nc(Nc4ccc(F)cc4)nc(-c4ccccc4)n3)ccc2n1Cc1ccccc1: Yes
Cc1nc2ccc(Nc3nc(NCCO)nc(Nc4ccc(F)cc4)n3)cc2n1Cc1ccccc1: No
Cc1nc2ccc(Nc3nc(Cl)nc(Nc4ccc(F)cc4)n3)cc2n1Cc1ccccc1: No
Cc1nc2cc(Nc3nc(NCCN)nc(Nc4ccc(F)cc4)n3)ccc2n1Cc1ccccc1: No
Cc1nc2ccc(Nc3nc(Nc4ccc(F)cc4)nc(N4CCCCC4)n3)cc2n1Cc1ccccc1: No
Cc1nc2cc(Nc3nc(Nc4ccc(F)cc4)nc(-c4ccc(Cl)cc4)n3)ccc2n1Cc1ccccc1: Yes
Cc1nc2cc(Nc3nc(NCCO)nc(Nc4ccc(F)cc4)n3)ccc2n1Cc1ccccc1: No

Task item: Is inhibition of growth at 10 µM at least 20%? Consider "Cc1nc2cc(Nc3nc(Nc4ccc(F)cc4)nc(-c4cccs4)n3)ccc2n1Cc1ccccc1"
Reply: Yes

Task item: Another compound to look at: "COc1ccc(-c2nc(Nc3ccc(F)cc3)nc(Nc3ccc4c(c3)nc(C)n4Cc3ccccc3)n2)cc1"
Reply: Yes

Task item: Another compound to look at: "Cc1nc2cc(Nc3nc(Nc4ccc(F)cc4)nc(Nc4ncccn4)n3)ccc2n1Cc1ccccc1"
Reply: No

====

assay: Cytotoxicity against human UO31 cells at 10 uM after 48 hrs by SRB assay; assay type: functional; settings: UO-31, 48 h, read-out: GI
Label T when inhibition of growth at 10 µM >= 60%; otherwise F.

Cc1nc2ccc(Nc3nc(Cl)nc(Nc4ccc(F)cc4)n3)cc2n1Cc1ccccc1: T

Task item: Is inhibition of growth at 10 µM at least 60%? Consider "Cc1nc2ccc(Nc3nc(NCCN)nc(Nc4ccc(F)cc4)n3)cc2n1Cc1ccccc1"
Reply: F

Task item: Another molecule to look at: "Cc1nc2cc(Nc3nc(Nc4ccc(F)cc4)nc(Nc4ncccn4)n3)ccc2n1Cc1ccccc1"
Reply: F

Task item: Another molecule to look at: "Cc1nc2cc(Nc3nc(Nc4ccc(F)cc4)nc(Nc4ccc(F)cc4)n3)ccc2n1Cc1ccccc1"
Reply: F

Task item: Another molecule to look at: "Cc1nc2ccc(Nc3nc(NCCN4CCOCC4)nc(Nc4ccc(F)cc4)n3)cc2n1Cc1ccccc1"
Reply: T

Task item: Another molecule to look at: "Cc1nc2cc(Nc3nc(Nc4ccc(F)cc4)nc(-c4ccc(Cl)cc4)n3)ccc2n1Cc1ccccc1"
Reply: F

Task item: Another molecule to look at: "Cc1nc2cc(Nc3nc(NCCO)nc(Nc4ccc(F)cc4)n3)ccc2n1Cc1ccccc1"
Reply: F

Task item: Another molecule to look at: "COc1ccc(-c2nc(Nc3ccc(F)cc3)nc(Nc3ccc4c(c3)nc(C)n4Cc3ccccc3)n2)cc1"
Reply: T

Task item: Another molecule to look at: "Cc1nc2cc(Nc3nc(NCCN)nc(Nc4ccc(F)cc4)n3)ccc2n1Cc1ccccc1"
Reply: F

Task item: Another molecule to look at: "Cc1nc2cc(Nc3nc(Nc4ccc(F)cc4)nc(-c4cccs4)n3)ccc2n1Cc1ccccc1"
Reply: T
